Biological target: T1, Anti-CD28 Fab (SEQ ID NOs: 696, 697)
T1 construct: In the phage ELISA the Fab was biotinylated and captured on neutravidin coated plates
T1 sequence (VH, as listed by the source, chain 1 of 2): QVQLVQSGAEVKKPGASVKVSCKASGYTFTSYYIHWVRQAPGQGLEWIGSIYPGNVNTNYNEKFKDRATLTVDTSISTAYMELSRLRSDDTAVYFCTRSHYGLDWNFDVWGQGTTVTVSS
T1 sequence (VL, as listed by the source, chain 2 of 2): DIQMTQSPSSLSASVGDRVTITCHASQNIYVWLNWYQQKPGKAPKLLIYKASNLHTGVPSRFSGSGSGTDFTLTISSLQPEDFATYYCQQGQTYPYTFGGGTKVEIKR
Assay: phage binding ELISA; biotinylated anti-CD28 Fab on neutravidin plate, clonal phage supernatant, anti-M13 HRP detection;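 also: wells pretreated with blocking buffer, either plus or minus CD28 antigen, then given crude phage supernatant briefly without washing in between, then washed before anti-M13 HRP readout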
# Lookup of reported Phage binding ELISA, Anti-CD28 Fab signal keyed by entry
measure: Phage binding ELISA, Anti-CD28 Fab signal

[[record]]
binder = "TCAAGATYDWPSCL [Phage-1694]"
readout_number = 0.71

[[record]]
binder = "DCWWDSPYHWRVCL [Phage-1703]"
readout_number = 0.57

[[record]]
binder = "GCAAGAEYNWPTCL [Phage-1698]"
readout_number = 0.69

[[record]]
binder = "PCSAGATYAWPYCL [Phage-1696]"
readout_number = 0.71

[[record]]
binder = "ECSAGAMWGWPACF [Phage-1693]"
readout_number = 0.73

[[record]]
binder = "TCSAGAQWEWPACL [Phage-1700]"
readout_number = 0.67

[[record]]
binder = "TCSAGATYGWPACF [Phage-1691]"
readout_number = 0.76

[[record]]
binder = "ICAAGAGWPWPWCL [Phage-1692]"
readout_number = 0.75

[[record]]
binder = "WCSAVFSYQWPVCL [Phage-1701]"
readout_number = 0.61

[[record]]
binder = "SCSAGASYAWPMCI [Phage-1702]"
readout_number = 0.59

[[record]]
binder = "TCAAGAQLEWPWCF [Phage-1697]"
readout_number = 0.7

[[record]]
binder = "TCSAGATYKWPMCF [Phage-1690]"
readout_number = 0.77

[[record]]
binder = "TCAAGAAYTWPHCF [Phage-1699]"
readout_number = 0.69

[[record]]
binder = "TCAAGAVWQWPTCF [Phage-1695]"
readout_number = 0.71

